Experiment: Reverse-phase thin-layer chromatographic lipophilicity (RF, RM0)
Type: physicochemical
Conditions: RP-18 silica; I = 90%MeOH/5%H2O/5%HCl
reported-endpoint: RF, Methanol/Water/Hydrochloric acid (conc.), mobile phase I
One number for each entry.

1. Clc1ccc2c(Nc3cccc4c(NCCC56CC7CC(CC(C7)C5)C6)cccc34)ccnc2c1 ... 0.67
2. Clc1ccc2c(NCCCCN(CCC34CC5CC(CC(C5)C3)C4)CCC34CC5CC(CC(C5)C3)C4)ccnc2c1 ... 0.44
3. Clc1ccc2c(NCCN(CCC34CC5CC(CC(C5)C3)C4)CCC34CC5CC(CC(C5)C3)C4)ccnc2c1 ... 0.44

Respectfully, I request RF, Methanol/Water/Hydrochloric acid (conc.), mobile phase I for each entry included below.
1. Clc1ccc2c(Nc3cccc(NCC45CC6CC(CC(C6)C4)C5)c3)ccnc2c1
2. Clc1ccc2c(NCCNCC34CC5CC(CC(C5)C3)C4)ccnc2c1
3. CC(CCNCC12CC3CC(CC(C3)C1)C2)Nc1ccnc2ccccc12 (centres unmarked)
4. Clc1ccc2c(NCCCN3CCN(CCCNCC45CC6CC(CC(C6)C4)C5)CC3)ccnc2c1
5. CC(CCNCCC12CC3CC(CC(C3)C1)C2)Nc1ccnc2ccccc12 (centres unmarked)

1: 0.71; 2: 0.72; 3: 0.71; 4: 0.67; 5: 0.7

====

Test: Reverse-phase thin-layer chromatographic lipophilicity (RF, RM0)
Type: physicochemical
Conditions: RP-18 silica; V = 70%MeOH/25%H2O/5%HCl
Experimental: Chromatographic determination of lipophilicity Merck, Darmstadt, Germany). The mobile phase contained organic modifier (methanol, acetone or dioxane), water and hydrochloric acid. Methanol was varied in the range […] with an increment of 10%. […] before chromatogram development. The solvent developing distance was 4.5 cm. Detection of […] All experiments were performed at ambient temperature (22±2 °C). Retention parameters were calculated as previously described. […]
Entry flag: y if RF, Methanol/Water/Hydrochloric acid (conc.), mobile phase V reaches 0.4; n if it does not.

1. Clc1ccc2c(NCCCCCN(CCC34CC5CC(CC(C5)C3)C4)CCC34CC5CC(CC(C5)C3)C4)ccnc2c1 ... n
2. Clc1ccc2c(N3CCN(CC45CC6CC(CC(C6)C4)C5)CC3)ccnc2c1 ... y

I'd appreciate it if you could say whether Clc1ccc2c(Nc3ccc(NCC45CC6CC(CC(C6)C4)C5)cc3)ccnc2c1 has RF, Methanol/Water/Hydrochloric acid (conc.), mobile phase V at least equal to 0.4.
y

Now consider CC(CCNCC12CC3CC(CC(C3)C1)C2)Nc1ccnc2cc(Cl)ccc12 (centres unmarked) .
y

Now consider Clc1ccc2c(NCCCNCC34CC5CC(CC(C5)C3)C4)ccnc2c1 .
y

Now consider FC(F)(F)c1ccc2c(NCCCNCC34CC5CC(CC(C5)C3)C4)ccnc2c1 .
y

====

Test: Reverse-phase thin-layer chromatographic lipophilicity (RF, RM0)
Assay type: physicochemical
Settings: RP-18 silica; III = 80%MeOH/15%H2O/5%HCl
Please respond with reported RF, Methanol/Water/Hydrochloric acid (conc.), mobile phase III for every item in the list.
Give bare numbers.

Here is how some compounds turned out for RF, Methanol/Water/Hydrochloric acid (conc.), mobile phase III.
1) Clc1ccc2c(NCCCCCCNCC34CC5CC(CC(C5)C3)C4)ccnc2c1 ... 0.47
2) Clc1ccc2c(N3CCN(CC45CC6CC(CC(C6)C4)C5)CC3)ccnc2c1 ... 0.58
3) FC(F)(F)c1ccc2c(NCCNCC34CC5CC(CC(C5)C3)C4)ccnc2c1 ... 0.51
4) Clc1ccc2c(NCCNCC34CC5CC(CC(C5)C3)C4)ccnc2c1 ... 0.54
5) Clc1ccc2c(Nc3cccc(NCC45CC6CC(CC(C6)C4)C5)c3)ccnc2c1 ... 0.5

Respectfully, I request RF, Methanol/Water/Hydrochloric acid (conc.), mobile phase III for each entry included below.
1. Clc1ccc2c(N3CCN(CCC45CC6CC(CC(C6)C4)C5)CC3)ccnc2c1
2. CC(CCNCCC12CC3CC(CC(C3)C1)C2)Nc1ccnc2ccccc12 (stereo not drawn)
3. FC(F)(F)c1ccc2c(NCCCNCC34CC5CC(CC(C5)C3)C4)ccnc2c1
4. CC(CCNCCC12CC3CC(CC(C3)C1)C2)Nc1ccnc2cc(Cl)ccc12 (stereo not drawn)

0.51
0.51
0.51
0.45

Respectfully, I request RF, Methanol/Water/Hydrochloric acid (conc.), mobile phase III for each entry included below.
1. Clc1ccc2c(NCCCN3CCN(CCCNCCC45CC6CC(CC(C6)C4)C5)CC3)ccnc2c1
2. Clc1ccc2c(NCCNCCC34CC5CC(CC(C5)C3)C4)ccnc2c1
3. Clc1ccc2c(Nc3ccc(NCC45CC6CC(CC(C6)C4)C5)cc3)ccnc2c1

1. 0.54
2. 0.45
3. 0.54

Respectfully, I request RF, Methanol/Water/Hydrochloric acid (conc.), mobile phase III for each entry included below.
1. CC(CCNCC12CC3CC(CC(C3)C1)C2)Nc1ccnc2cc(Cl)ccc12 (stereo not drawn)
2. Clc1ccc2c(Nc3cccc4c(NCCC56CC7CC(CC(C7)C5)C6)cccc34)ccnc2c1
3. Clc1ccc2c(NCCCCCN(CCC34CC5CC(CC(C5)C3)C4)CCC34CC5CC(CC(C5)C3)C4)ccnc2c1

1: 0.53; 2: 0.44; 3: 0.09

====

Please respond with reported RF, Dioxane/Water/Hydrochloric acid (conc.), mobile phase V for every item in the list.
Assay: Reverse-phase thin-layer chromatographic lipophilicity (RF, RM0)
Assay type: physicochemical
Conditions: RP-18 silica; V = 50%Dioxane/45%H2O/5%HCl
Numbers only.

1. Clc1ccc2c(Nc3cccc4c(NCCC56CC7CC(CC(C7)C5)C6)cccc34)ccnc2c1 ... 0.53
2. Clc1ccc2c(NCCCNCC34CC5CC(CC(C5)C3)C4)ccnc2c1 ... 0.55
3. Clc1ccc2c(NCCNCC34CC5CC(CC(C5)C3)C4)ccnc2c1 ... 0.55
4. Clc1ccc2c(NCCCN3CCN(CCCNCC45CC6CC(CC(C6)C4)C5)CC3)ccnc2c1 ... 0.6
5. Clc1ccc2c(NCCCCN(CCC34CC5CC(CC(C5)C3)C4)CCC34CC5CC(CC(C5)C3)C4)ccnc2c1 ... 0.14

Respectfully, I request RF, Dioxane/Water/Hydrochloric acid (conc.), mobile phase V for each entry included below.
1. Clc1ccc2c(NCCCCCCCCNCC34CC5CC(CC(C5)C3)C4)ccnc2c1
2. Clc1ccc2c(NCCNCCC34CC5CC(CC(C5)C3)C4)ccnc2c1
3. FC(F)(F)c1ccc2c(NCCCNCC34CC5CC(CC(C5)C3)C4)ccnc2c1
4. Clc1ccc2c(N3CCN(CC45CC6CC(CC(C6)C4)C5)CC3)ccnc2c1
5. Clc1ccc2c(Nc3ccc(NCC45CC6CC(CC(C6)C4)C5)cc3)ccnc2c1
6. CC(CCNCC12CC3CC(CC(C3)C1)C2)Nc1ccnc2cc(C(F)(F)F)ccc12 (centres unmarked)
7. Clc1ccc2c(NCCCCCN(CCC34CC5CC(CC(C5)C3)C4)CCC34CC5CC(CC(C5)C3)C4)ccnc2c1
8. CC(CCNCCC12CC3CC(CC(C3)C1)C2)Nc1ccnc2cc(Cl)ccc12 (centres unmarked)

1: 0.47; 2: 0.47; 3: 0.51; 4: 0.63; 5: 0.49; 6: 0.5; 7: 0.13; 8: 0.45

Respectfully, I request RF, Dioxane/Water/Hydrochloric acid (conc.), mobile phase V for each entry included below.
1. CC(CCNCC12CC3CC(CC(C3)C1)C2)Nc1ccnc2cc(Cl)ccc12 (centres unmarked)
2. Clc1ccc2c(Nc3cccc(NCC45CC6CC(CC(C6)C4)C5)c3)ccnc2c1
3. CC(CCNCC12CC3CC(CC(C3)C1)C2)Nc1ccnc2ccccc12 (centres unmarked)
4. Clc1ccc2c(NCCN(CCC34CC5CC(CC(C5)C3)C4)CCC34CC5CC(CC(C5)C3)C4)ccnc2c1

1: 0.54; 2: 0.48; 3: 0.51; 4: 0.11

====

Please respond with reported RF, Methanol/Water/Hydrochloric acid (conc.), mobile phase VII for every item in the list.
Assay: Reverse-phase thin-layer chromatographic lipophilicity (RF, RM0)
Format: physicochemical
Conditions: RP-18 silica; VII = 60%MeOH/35%H2O/5%HCl

Here is how some molecules turned out for RF, Methanol/Water/Hydrochloric acid (conc.), mobile phase VII.
1) Clc1ccc2c(NCCCN3CCN(CCCNCC45CC6CC(CC(C6)C4)C5)CC3)ccnc2c1 ... 0.38
2) CC(CCNCC12CC3CC(CC(C3)C1)C2)Nc1ccnc2cc(C(F)(F)F)ccc12 (centres unmarked) ... 0.22
3) Clc1ccc2c(NCCCCCCNCC34CC5CC(CC(C5)C3)C4)ccnc2c1 ... 0.2
4) Clc1ccc2c(Nc3ccc(NCC45CC6CC(CC(C6)C4)C5)cc3)ccnc2c1 ... 0.24
5) Clc1ccc2c(NCCCCCN(CCC34CC5CC(CC(C5)C3)C4)CCC34CC5CC(CC(C5)C3)C4)ccnc2c1 ... 0
6) Clc1ccc2c(N3CCN(CC45CC6CC(CC(C6)C4)C5)CC3)ccnc2c1 ... 0.38
7) Clc1ccc2c(NCCCCN(CCC34CC5CC(CC(C5)C3)C4)CCC34CC5CC(CC(C5)C3)C4)ccnc2c1 ... 0

What value of RF, Methanol/Water/Hydrochloric acid (conc.), mobile phase VII has been recorded for this entry: FC(F)(F)c1ccc2c(NCCCNCC34CC5CC(CC(C5)C3)C4)ccnc2c1
0.23
